Where do these numbers come from? They come from patent US5665346A.

biological target: human neutrophils (receptor sites for IL-8 on neutrophils) (human); assay: competition with 125I-IL-8 1-72 on human neutrophils, LIGAND fit
reported-endpoint: Kd (nM)

[a] IL-8 1-54 (ligand) SAKELRCQCIKTYSKPFHPKFIKELRVIESGPHCANTEIIVKLSDGRELCLDPK
[b] IL-8 1-51 (ligand) SAKELRCQCIKTYSKPFHPKFIKELRVIESGPHCANTEIIVKLSDGRELCL
Prompt: In the pair a and b , the larger recorded Kd belongs to which? // respond with label for picked entry
Completion: b
(b: 17 nM, a: 10 nM)
